Test system: 786-0 renal
Method description: NCI-60 one-dose screen, 48 h
Recorded conditions: 10 µM unless noted
Procedure: Cells are grown in 96 well plates and exposed to the test compound for 48 hours. Compounds are tested at a single concentration, which is 10^-5 M for most compounds. The reported endpoint is percent growth (GI% or GIPRCNT), where numbers from 0 - 100% represent growth inhibition, and numbers from -100% - 0 represent cell death. For example, a value of 40 represents 60% growth inhibition. A value of 0 means no net growth occurred over the course of the experiment. […]
This is part of a sample that, as a whole, favours compounds with a hit. Of some 83,000 tested, about 20% had one in any assay. The source made the active and inactive calls. The calls were made as follows: active = growth percent below 10; inactive = the rest.
# valid calls are active, inactive; nothing else

Worked examples follow.
COc1ccc(/C(C)=C(\c2ccc(Cl)cc2)c2ccc(OCCCN(C)C)cc2)cc1F = inactive
CS(=O)(=O)c1ccc(N/N=C/c2c(-c3ccc(S(C)(=O)=O)cc3)[nH]c3ccc(F)cc23)cc1 = inactive
Nc1ccc2c(S(=O)(=O)O)ccc(S(=O)(=O)O)c2c1 = inactive

Ask | What did this assay record as the result for CCOc1ccc(-c2nc3ccc(-c4nc5ccc(N6CCN(C)CC6)cc5[nH]4)cc3[nH]2)cc1OCC ?
Reply | inactive

Ask | State the result this test recorded for Cc1ccccc1NC(=O)CN(C)C .
Reply | inactive

Ask | Which outcome was assigned to CO/C(=C1/NC(=O)C(Cc2ccc(O)c(Br)c2)N(C)C(=O)C(C)NC(=O)CCC/C=C(\C)CCC(C)OC1=O)c1ccccc1 (stereo not given) in this test?
Reply | active

Ask | What call does the record list for N=c1ccn2c(n1)OC1C(O)C(CO)OC12 (stereo not given) ?
Reply | inactive

====

System: SK-MEL-28 melanoma
Method description: NCI-60 one-dose screen, 48 h (100 = growth as untreated, 0 = no growth, -100 = all killed)
Recorded conditions: 10 µM unless noted
The panel holds about 83,000 compounds, 20% with a hit somewhere; the sample as a whole holds those more often.
Test readout: growth (%)
Express it in %; write the number only.

O=C(O)c1ccc(CO)o1 = 103

Ask | What value of growth has been reported for the following compound? Clc1ccc2c(NCCCN3CCN(c4nc(N5CCOCC5)nc5ccccc45)CC3)ccnc2c1
Reply | -85

Ask | Item under review: CC(C)n1nc(C#Cc2cccc3cc(-c4cccc(C(F)(F)F)c4)ncc23)c2c(N)ncnc21 . Reported growth?
Reply | 83.3

Ask | Look up growth: CC/C=C/[C@@H]1C=C[C@@H]2CCC[C@H]2[C@@H]1CC[C@H](O)[C@H](C)N
Reply | -87.1

====

System: UO-31 renal
Method description: NCI-60 one-dose screen, 48 h
Recorded conditions: 10 µM unless noted
This is part of a sample that, as a whole, favours compounds with a hit. Of some 83,000 tested, about 20% had one in any assay. The source made the active and inactive calls. How the source made its calls: active means growth percent below 10; inactive means the rest.
Select the matching outcome among yes for active, no for inactive

CC(C)c1ccc(NC(=O)Cc2ccc(Nc3ncnc4cc(-c5cnn(CCN(C)C)c5)ccc34)cc2)cc1 = yes
Cc1cc(C(c2ccccc2)c2ccccc2)ccc1NS(=O)(=O)c1ccccc1 = no
CCn1c(Sc2nnc(NC(=O)CSC(=S)N3CCCCC3)s2)nc2c1c(=O)n(C)c(=O)n2C = no

Ask | Status in this test for N=c1ccn2c(n1)OC1C(O)C(CO)OC12 (centres undefined) ?
Reply | yes

Ask | Please state the recorded outcome for this compound: COc1ccc(-n2sc(=O)n(Cc3ccc(COC(=O)C(C)c4ccc(CC(C)C)cc4)cc3)c2=O)cc1 (centres undefined)
Reply | yes

Ask | Hi, do you know how CC(C)(C)N1CC(OC(N)=O)C1 came out in this test?
Reply | no

Ask | Outcome? COc1ccc(C2CC(c3ccc4ccccc4c3)=NN2c2nc(O)c(C3=c4cc(Cl)ccc4=NC3=O)s2)cc1 (centres undefined)
Reply | yes

Ask | Fill in: this test's call for COc1cc(C2C=C(c3cccc(NC(C)=O)c3)Nc3ncnn32)cc(OC)c1OC (centres undefined) is ___
Reply | no

Ask | Hi, do you know how COc1cc2cc(Oc3ccc(NC(=O)Nc4cc(C(F)(F)F)cc(C(F)(F)F)c4)cc3)c(C)nc2cc1OCCN1CCCCC1 came out in this test?
Reply | yes

====

Tested on: CCRF-CEM leukemia
Method description: NCI-60 one-dose screen, 48 h (100 = growth as untreated, 0 = no growth, -100 = all killed)
Recorded conditions: 10 µM unless noted
About 83,000 compounds went through this panel and 20% of them were active in at least one assay; those are over-represented in the sample as a whole.
Binary call on growth with cut-off 80%: strictly below means y, and equality or higher means n.

Ask | Lab log: compare recorded growth with 80%; is it strictly lower for COc1cc(/C=C/C(=O)c2ccc(Nc3nc(Nc4ccccc4)nc(Nc4ccc(Cl)cc4)n3)cc2)cc(OC)c1OC ?
Reply | y

Ask | Say whether its growth is strictly beneath 80%. Entry: CCn1c(Sc2nnc(NC(=O)CCN3CCCC3)s2)nc2c1c(=O)n(C)c(=O)n2C
Reply | n

Ask | Here's an entry: N=C(N)c1ccc(-c2ccc(-c3ccc(Cl)cn3)s2)cc1 . Is its growth below 80%?
Reply | y

Ask | is_below(growth, 80%) for CC(C)CCC[C@@H](C)[C@H]1CCC2C3=CCC4C(=O)C=CC(=O)C4C3CC[C@@]21C (some centres undefined) ?
Reply | y

Ask | Please state whether growth is below 80% for O=[N+]([O-])c1cccc(/C=C/c2ccccn2)c1
Reply | y

Ask | # strict comparison: is reported growth < 80%? input = C=C(C)[C@@H]1CC[C@]2(CO)CC[C@]3(C)[C@H](CC[C@@H]4[C@@]5(C)C=C(C#N)C(=O)C(C)(C)[C@@H]5CC[C@]43C)[C@@H]12
Reply | y

Ask | Take the compound Cc1[nH]c(-c2nc3ccccc3[nH]2)c(C)c1C(=O)NNc1ccc(Cl)cc1 and say whether its growth is less than 80%.
Reply | n

Ask | Threshold test, growth < 80%: COc1ccc(-c2nnc(SCC(=O)NC3=NN=C(c4ccccc4)CS3)o2)cc1
Reply | n

====

System: OVCAR-3 ovarian
Method description: NCI-60 one-dose screen, 48 h
Recorded conditions: 10 µM unless noted
Procedure: Growth inhibition of the OVCAR-3 human tumor cell line is measured as a screen for anti-cancer activity. Cells are grown in 96 well plates and exposed to the test compound for 48 hours. Compounds are tested at a single concentration, which is 10^-5 M for most compounds. The reported endpoint is percent growth (GI% or GIPRCNT), where numbers from 0 - 100% represent growth inhibition, and numbers from -100% - 0 represent cell death. For example, a value of 40 represents 60% growth inhibition. […]
Compounds without any hit were thinned out: in the full panel of roughly 83,000, 20% have a hit. The source made the active and inactive calls. Rule for the calls: active = growth percent below 10; inactive = the rest.
Give your call using only these classes: True = active, False = inactive

Observe how each entry below is paired with its result.
Cc1cccc(-c2cc(O)c(C(=O)N3CCOCC3)s2)c1 = False
CC[C@]1(O)C[C@H]2CN(CCc3c([nH]c4ccccc34)[C@@](C(=O)OC)(c3cc4c(cc3OC)N(C=O)[C@H]3[C@@](O)(C(=O)OC)[C@H](OC(C)=O)[C@]5(CC)C=CCN6CC[C@]43[C@@H]65)C2)C1 = True
CCOC(=O)C1C(=O)C=C(c2cnccn2)CC1c1ccc(OC)c(OC)c1 (stereo not drawn) = False
CC(C)OCCCNCC(=O)Nc1ccc(S(=O)(=O)c2ccc(NC(=O)CNCCCOC(C)C)cc2)cc1 = False
CN(C)c1ccc(C#Cc2c(F)cccc2Cl)cc1 = False

Ask | What did the test return for Cl.[Pt].[c-]1ccccc1-c1ccccn1.c1ccc(P(c2ccccc2)C([PH+](c2ccccc2)c2ccccc2)[PH+](c2ccccc2)c2ccccc2)cc1 ?
Reply | False

Ask | Please share the test call associated with O=c1cc(-c2ccc(OCc3ccccc3)cc2)oc2c(I)c(OCc3ccccc3)cc(OCc3ccccc3)c12 .
Reply | False

Ask | Assay result, entry COc1cc(/C=C2\C=C(c3ccccc3)N(CCc3ccccc3)C2=O)cc(OC)c1OC — outcome?
Reply | False

====

Below, each entry is listed alongside its reported growth.
Test system: SK-MEL-2 melanoma
Method description: NCI-60 one-dose screen, 48 h (100 = growth as untreated, 0 = no growth, -100 = all killed)
Recorded conditions: 10 µM unless noted
This is part of a sample that, as a whole, favours compounds with a hit. Of some 83,000 tested, about 20% had one in any assay. Calls of active or inactive are those of the source. The calls were made as follows: active = growth percent below 10; inactive = the rest.

# example entries with known answers
CC(C)CCC[C@@H](C)[C@H]1CCC2C3=CCn4c(=O)ccc(=O)n4C3CC[C@@]21C (stereo partly specified) = -57.4% (active)
CCc1nc2ccccc2[nH]1 = 127% (inactive)
COc1ccc2c(c1)/C(=C\c1sc(=S)[nH]c1O)C(C(=O)O)=N2 = 99.4% (inactive)
O=c1cc(-c2ccc(OCc3ccccc3)cc2)oc2c(I)c(OCc3ccccc3)cc(OCc3ccccc3)c12 = 113% (inactive)
COC(=O)c1ccc2oc(NC(=O)c3ccc(N4CCOCC4)c([N+](=O)[O-])c3)nc2c1 = 99.5% (inactive)

Ask | // query growth value for entry C[C@@H]1CC[C@@H]2[C@@H]1[C@H](OC(=O)/C=C/c1ccccc1)[C@]1(C3CCCCC3)C[C@@H](NC(=O)CO)[C@@]2(C)O1
Reply | 95.9% (inactive)

Ask | Consider the compound NC(=S)N/N=C/C(=O)O and give its measured growth.
Reply | 85.3% (inactive)

Ask | Entry C=C1C(=O)O[C@H]2[C@H]1CC/C(COC(=O)/C=C\C(=O)NCc1ccc(Cn3c(=O)sn(-c4ccc(C#N)cc4)c3=O)cc1)=C\CC[C@@]1(C)O[C@@H]21 : reported growth = ?
Reply | -64.9% (active)

Ask | # input compound: CN1CCN(C(=O)[C@]23CCC(C)(C)C[C@@H]2C2=CC[C@@H]4[C@@]5(C)Cc6c([nH]c7ccccc67)C(C)(C)[C@@H]5CC[C@@]4(C)[C@]2(C)CC3)CC1 ; wanted: its growth
Reply | 95.1% (inactive)

Ask | Which growth reading was recorded for the compound Cc1cc(C(c2ccccc2)c2ccccc2)ccc1NS(=O)(=O)c1ccccc1 ?
Reply | 104% (inactive)

Ask | Param item = CCCCOc1ccc(NC(=O)n2nc(N=NN(C)C)c3ccc(Cl)cc32)cc1 ; retrieve measured growth.
Reply | 97.6% (inactive)

Ask | Return reported growth; argument: O=C1CC(c2ccc3c(c2)OCO3)Nc2cc3c(cc21)OCO3 (stereo unspecified)
Reply | 11.7% (inactive)

Ask | Quick check: growth of C=CCN1C(=O)[C@]2(SC1=S)[C@H](c1cccc(Cl)c1)CN(C)[C@]21C(=O)NC2C=CC(Cl)=C[C@H]21 (stereo partly specified) ?
Reply | 44.2% (inactive)

Ask | # get_value(readout='growth', item= CCOC(=O)C(O)C(O)(c1ccccc1)c1ccccc1 (stereo unspecified) )
Reply | 102% (inactive)

Ask | Dear colleague, I am looking for the recorded growth of the following compound: O=c1[nH]c(NCc2nnnn2-c2ccc(Br)cc2)nc2sc3c(c12)CCCC3
Reply | 108% (inactive)

Ask | So what does the record say about growth for N#Cc1cnn2c(-c3ccc(Cl)cc3)nc(NCCc3ccccc3)nc12 ?
Reply | 89.1% (inactive)

Where do the numbers come from? From PubChem BioAssay (NCI).
